Data provenance: ChEMBL document CHEMBL1201862

# System: M14
# EXPERIMENTAL PROTOCOL: NCI tumour cell line growth inhibition, 48 h
Active and inactive are the calls of the source. No stated cut-off is given here; in the data, active = GI50 up to about 1.1 µM and inactive = higher.
ASSAY READOUT: GI50

Look over these answered cases.
>>> recorded_result("NC(CCc1ccccc1)(C(=O)O)c1ccccc1 (stereo not drawn)")
"> 100 µM (inactive)"
>>> recorded_result("O=C1CCCCCCCCCCC1CN1CCCC1 (stereo not drawn)")
"20.1 µM (inactive)"
>>> recorded_result("CC(=O)NC1C(OCc2ccccc2)OC(CO)C(O)C1OCC(=O)N1CCCC1C(=O)N[C@@H](CCC(=O)NCCCCNc1c2ccccc2nc2cccc([N+](=O)[O-])c12)C(N)=O (stereo partly drawn)")
"16 µM (inactive)"
>>> recorded_result("CO[C@@H]1[C@@H](OC2OC(C)C(OC3CC(C)(O)C(OC(=O)CC(C)C)C(C)O3)C(N(C)C)C2O)[C@@H](CC=O)C[C@@H](C)C(=O)/C=C/C2O[C@H]2C[C@@H](C)OC(=O)C[C@H]1OC(C)=O (stereo partly drawn)")
"16.1 µM (inactive)"

Return reported GI50. Input compound: CNC1C(O)C(OC2C(N)CC(N)C(OC3OC(CN)=CCC3N)C2O)OCC1(C)O (stereo not drawn)
> 100 µM (inactive)

State its GI50: `C=CCN1C2Cc3cc(OC)c(OC)cc3C1Cc1cc(OC)c(OC)cc12`
> 100 µM (inactive)

Quote GI50 reported for `CCOP(=O)(C/C(=N/NC(C)(C)C)C(=O)Nc1nc2ccc(C)cc2s1)OCC` please.
> 100 µM (inactive)

Query GI50 for `CCOC(=O)c1[nH]c2nc(SC)nc(Nc3ccccc3Cl)c2c1N`
37.8 µM (inactive)

====

# System: NCI-H522
# EXPERIMENTAL PROTOCOL: NCI tumour cell line growth inhibition, 48 h
Activity calls are given as the source filed them. Cut-off read from the data, not from the text of the source: active = GI50 up to about 1.1 µM and inactive = higher.
ASSAY READOUT: GI50

Please review the following examples before continuing.
>>> recorded_result("CN1COc2c(n(C)c(=O)[nH]c2=O)C1")
"> 100 µM (inactive)"
>>> recorded_result("Cn1c2ccccc2c2c3c(c4c5ccccc5n(C)c4c21)C(=O)N(Cc1ccccc1)C3=O")
"> 100 µM (inactive)"

Indicate the recorded GI50 value for this compound: C=CCC1(O)c2ccccc2C(=O)c2c(O)ccc(O)c21 (stereo not given)
2.62 µM (inactive)

Give the value of GI50 reported for the following: `N#Cc1cc2c(cc1C#N)/C(=N\c1cccc(N)n1)N/C2=N\c1cccc(N)n1`
9.38 µM (inactive)

State its GI50: `CC(=O)n1nc(-c2ccccc2)n(/N=C/c2ccc([N+](=O)[O-])o2)c1=O`
3.7 µM (inactive)

Indicate its recorded GI50; the compound in question is `NC12CC3CC(C1)CC(C(=O)O)(C3)C2`
> 100 µM (inactive)

Identify GI50 associated with the compound COc1ccc(-c2cs/c(=N\c3ccccc3)n2CC(O)c2ccc([N+](=O)[O-])cc2)cc1 (stereo not given)
> 100 µM (inactive)

Name the recorded GI50 of the compound listed here: CC(c1cccc2ccccc12)/[N+]([O-])=C/c1ccccc1 (stereo not given)
78.7 µM (inactive)

Please look at this compound and report its GI50: NC(CCc1ccccc1)(C(=O)O)c1ccccc1 (stereo not given)
> 100 µM (inactive)

Report GI50 for `COc1ccc(-c2[nH]c3c4c(nc5c(c24)C(=O)CC(C)(C)C5)CC(C)(C)C3)cc1`
54.5 µM (inactive)

====

# Tested on: SR
# EXPERIMENTAL PROTOCOL: NCI tumour cell line growth inhibition, 48 h
Activity calls are given as the source filed them. No stated cut-off is given here; in the data, active = GI50 up to about 1.1 µM and inactive = higher.
ASSAY READOUT: GI50

Answered examples (5):
>>> recorded_result("CCOP(=O)(OCC)C1=NC=CC=CC1n1c(-c2ccccc2)nn(CC)c1=O (stereo not given)")
"> 100 µM (inactive)"
>>> recorded_result("CC(=O)OCCn1c(Cc2ccc([N+](=O)[O-])cc2)nn(C(C)=O)c1=O")
"> 100 µM (inactive)"
>>> recorded_result("Cn1c(-c2cccs2)cc(-c2ccsc2)c1-c1ccsc1")
"> 100 µM (inactive)"
>>> recorded_result("C[C@]12C(=O)C=CCC1=CC[C@@H]1[C@@H]2[C@H]2CC3(O)C(=O)O[C@@]4(C)[C@H]5C[C@@]6(C)[C@@H]7[C@@]2(O)[C@]1(OC[C@H]6C(=O)O5)O[C@]734 (stereo not given in full)")
"28.4 µM (inactive)"
>>> recorded_result("CC1OC(CC(=O)O)CC2=C1C(=O)c1c(O)cccc1C2=O (stereo not given)")
"0.0336 µM (active)"

Now take the following molecule into account.
Give GI50 for the following molecule: `CCN(CC)c1ccc(/C=C/C=C2C(=O)NC(=S)NC2=O)cc1`
2.53 µM (inactive)

====

# Test system: UACC-257
# EXPERIMENTAL PROTOCOL: NCI tumour cell line growth inhibition, 48 h
Calls of active or inactive are those of the source. No stated cut-off is given here; in the data, active = GI50 up to about 1.1 µM and inactive = higher.
Give one outcome, nothing more. List: active, inactive

Completed entries (count: 5):
>>> class("O=c1n(/N=C/c2ccccc2)c(=O)n2n1C1C=CC2CC1")
"inactive"
>>> class("CC1CN=C(N(C(=O)Nc2ccccc2)c2ccc(Cl)c(Cl)c2)S1 (stereo unspecified)")
"inactive"
>>> class("CC(C)=CCN1c2ccccc2[C@@]2(CC=C(C)C)CCN(C)[C@@H]12 [(+)-DEBROMOFLUSTRAMINE B]")
"inactive"
>>> class("O=C(/N=N/C(=O)OCc1ccccc1)OCc1ccccc1")
"inactive"
>>> class("CC1(C)N=c2c(ncn2N)=C(C(N)=O)N1")
"inactive"

Kindly provide the recorded test outcome for the following molecule: `Cc1cc(C)n(C2=NS(=O)(=O)c3ccccc3N2C)n1`
inactive

Hi team, can someone confirm the assay call for `O=C(/C=C(\O)c1cc(-c2ccccc2)n(-c2ccccc2)n1)c1ccccc1` ?
inactive

====

# System: RXF 631
# EXPERIMENTAL PROTOCOL: NCI tumour cell line growth inhibition, 48 h
The source made the active and inactive calls. Rule as the data show it: active = GI50 up to about 1.1 µM and inactive = higher.
Your response should consist of one outcome taken from active, inactive

Before answering, review these 4 worked examples.
>>> class("Cc1cc(Br)cc(C)c1NC(=O)C(=O)C(C(=O)c1ccc2ccccc2c1)C1OC(=O)c2ccccc21 (stereo not given)")
"inactive"
>>> class("CCC(C(=O)c1ccccc1)C(CCCC(=O)Nc1c(C)cccc1C)N=O (stereo not given)")
"inactive"
>>> class("O=C(Nc1cccc2c1C(=O)c1c(NC(=O)c3ccccc3)ccc(Nc3cccc4c3C(=O)c3ccccc3C4=O)c1C2=O)c1ccccc1")
"inactive"
>>> class("CC(=O)N1CCC(=O)/C(=C/c2ccccc2)C1")
"inactive"

For this compound, state the assay outcome: `COC(=O)c1sc(=NC(=S)N2CCCCC2)sc1C(=O)OC`
inactive

Outcome? O=C1NC2(O)c3ccccc3C(=O)C2(O)N1c1ccccc1 (stereo not given)
inactive

// param item: `Nc1c([N+](=O)[O-])nc(Cl)c2nncn12` ; yields the recorded call
inactive

Please state the recorded outcome for this compound: COc1ccc2nc(NC(=O)C(=O)C(C#N)c3ccc(Cl)c(Cl)c3)sc2c1 (stereo not given)
inactive

Record lookup: outcome of this test for COC1=CC(=O)c2ccccc2C1(C)C1=NC(C)(C)CO1 (stereo not given) ?
inactive

Status in this test for CC1OC(CC(=O)O)CC2=C1C(=O)c1c(O)cccc1C2=O (stereo not given) ?
active

====

Quick list: GI50 per entry.
# System: HT-29
# EXPERIMENTAL PROTOCOL: NCI tumour cell line growth inhibition, 48 h
Activity calls are given as the source filed them. Cut-off read from the data, not from the text of the source: active = GI50 up to about 1.1 µM and inactive = higher.

See these solved cases before continuing.
>>> recorded_result("Nc1c([N+](=O)[O-])nc(Cl)c2nncn12")
"96.8 µM (inactive)"
>>> recorded_result("CC(C)NC(=O)OCc1c(COC(=O)NC(C)C)c(-c2cc[n+](COC(=O)Cc3ccccc3)cc2)n2c1CCC2")
"> 100 µM (inactive)"
>>> recorded_result("COc1ccc(O)cc1")
"> 100 µM (inactive)"
>>> recorded_result("CCOC(CNc1nn2c(C)nnc2s1)OCC")
"> 100 µM (inactive)"

Give the reported GI50 for this compound. C=C1C(=O)C23CC1C[C@H](OC(C)=O)[C@H]2C1(C)C(OC(C)=O)C[C@H](O)C(C)(C)[C@H]1C(=O)[C@@H]3OC(C)=O (stereo partly specified)
4.49 µM (inactive)

Supply measured GI50 of `COC(=O)c1c(-c2ccccc2)c2sc3ccccc3n2c1N` in your reply.
49.7 µM (inactive)

Hello, please tell me recorded GI50 for this one: `CCOC(=O)C(Cc1cc(OC)c(CC(C(=O)OCC)C(=O)OCC)cc1OC)C(=O)OCC`
> 100 µM (inactive)

Supply measured GI50 of CCN(CC)c1ccc2c(c1)Oc1ccc(N(C(C)=O)c3ccccc3)cc1C21OC(=O)c2ccccc21 (stereo unspecified) in your reply.
32.3 µM (inactive)

For the compound O=[N+]([O-])c1ccc(C(O)/C(=N/O)c2nc3ccc(Cl)cc3nc2O)cc1 (stereo unspecified) , report GI50.
> 100 µM (inactive)
